- studySystem: T1, full length Shc (1 – 473) (UniProt P29353-2 1-473)
- T1 construct: Shc adaptor protein, full length 1-473 (printed length 473 residues, the p52 isoform), from a pET28a vector provided by Dr. Ladbury; numbers count on: the p52 isoform; Monomeric on Superdex-75; also called Shc full length; p52 Shc; source: E. coli BL21 (DE3), purified (Ni-NTA, Superdex-75)
- T1 sequence (looked up): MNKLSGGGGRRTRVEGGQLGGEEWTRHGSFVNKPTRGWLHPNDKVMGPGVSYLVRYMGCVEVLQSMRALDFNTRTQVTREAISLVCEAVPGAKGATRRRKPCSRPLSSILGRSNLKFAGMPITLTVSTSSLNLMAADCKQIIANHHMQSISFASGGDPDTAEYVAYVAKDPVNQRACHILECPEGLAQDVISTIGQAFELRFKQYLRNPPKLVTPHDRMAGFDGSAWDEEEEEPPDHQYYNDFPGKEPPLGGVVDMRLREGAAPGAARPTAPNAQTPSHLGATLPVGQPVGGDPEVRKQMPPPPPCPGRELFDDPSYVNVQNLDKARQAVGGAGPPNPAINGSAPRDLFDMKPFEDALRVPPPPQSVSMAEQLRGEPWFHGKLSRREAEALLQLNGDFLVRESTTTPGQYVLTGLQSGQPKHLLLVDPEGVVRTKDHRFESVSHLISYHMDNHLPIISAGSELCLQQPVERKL
- assaySummary: ITC; Nano ITC; β3 phosphopeptide titrated into the Shc protein (30-150 μM); 12°C; 50 mM Tris, pH 7.5, 100 mM NaCl, 5 mM β-mercaptoethanol; independent model
- assaySetup: both partners purified
Where no end group is shown, it is not given here. [ ]: non-standard residue; d: D form. pY = N[C@@H](Cc1ccc(OP(=O)(O)O)cc1)C(=O)O
readout: pKd
Lab note: report pKd as minus log10 of the concentration in molar units, number only.

INSERT INTO measurements (binder, readout, measurednumber) VALUES
  ('ATSTFTNIT[pY]RGT (integrin β3 cytoplasmic tail, residues 750-762, Y759 phosphorylated; also called mono-phosphorylated peptide; source: synthetic peptide (NEO-Peptide)) [c-β3: β3 integrin derived peptide phosphorylated at C-terminal tyrosine (Y759)]', 'pKd', 6.09);

Kindly consider the entry below.
Would you mind telling me what pKd value was observed for RAKWDTANNPL[pY]KEATSTFTNIT[pY]RGT (integrin β3 cytoplasmic tail, residues 736-762, both tyrosines phosphorylated; also called bi-phosphorylated β3 cytoplasmic tail peptide; source: synthetic peptide (NEO-Peptide)) [bi-β3: β3 integrin derived bi-phosphorylated (Y747 and Y759) peptide] ?
5.28
